# Measurement Target: Src enzyme (Homo sapiens (Human), UniProt P12931)
# Sequence (P12931 whole entry, looked up): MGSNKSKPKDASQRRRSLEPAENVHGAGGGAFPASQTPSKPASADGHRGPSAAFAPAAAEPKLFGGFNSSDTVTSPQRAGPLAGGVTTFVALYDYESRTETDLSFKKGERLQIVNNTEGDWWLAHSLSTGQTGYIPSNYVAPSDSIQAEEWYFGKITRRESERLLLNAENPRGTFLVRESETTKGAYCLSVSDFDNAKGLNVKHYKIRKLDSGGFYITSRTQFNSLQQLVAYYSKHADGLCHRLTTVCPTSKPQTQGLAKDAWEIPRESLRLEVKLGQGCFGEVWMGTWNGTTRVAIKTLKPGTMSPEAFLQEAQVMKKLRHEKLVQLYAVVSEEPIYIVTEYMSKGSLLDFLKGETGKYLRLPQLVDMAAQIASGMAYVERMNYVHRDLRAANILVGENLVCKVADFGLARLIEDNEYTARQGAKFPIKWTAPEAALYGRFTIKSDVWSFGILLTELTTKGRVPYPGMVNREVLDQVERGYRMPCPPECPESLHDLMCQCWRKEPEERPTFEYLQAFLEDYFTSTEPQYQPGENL
# Procedure Details: Src enzyme activity (IMAP fluorescence polarization assay)
pEC50: −log10 of the molar value.
Property: pEC50

Record Smiles	Property	Measured Value
Nc1nccn2c([C@@H]3CCCN3C(=O)/C=C/CN3CCCC3)nc(-c3ccc(C(=O)Nc4ccccn4)cc3)c12	pEC50	≤ 6.00
CC#CC(=O)N1CCC[C@H]1c1nc(-c2ccc(C(=O)Nc3ccccn3)cc2)c2c(N)nccn12	pEC50	≤ 6.00

====

# Measurement Target: Btk enzyme (His-Btk) (Homo sapiens (Human), UniProt Q06187)
# Sequence (Q06187 whole entry): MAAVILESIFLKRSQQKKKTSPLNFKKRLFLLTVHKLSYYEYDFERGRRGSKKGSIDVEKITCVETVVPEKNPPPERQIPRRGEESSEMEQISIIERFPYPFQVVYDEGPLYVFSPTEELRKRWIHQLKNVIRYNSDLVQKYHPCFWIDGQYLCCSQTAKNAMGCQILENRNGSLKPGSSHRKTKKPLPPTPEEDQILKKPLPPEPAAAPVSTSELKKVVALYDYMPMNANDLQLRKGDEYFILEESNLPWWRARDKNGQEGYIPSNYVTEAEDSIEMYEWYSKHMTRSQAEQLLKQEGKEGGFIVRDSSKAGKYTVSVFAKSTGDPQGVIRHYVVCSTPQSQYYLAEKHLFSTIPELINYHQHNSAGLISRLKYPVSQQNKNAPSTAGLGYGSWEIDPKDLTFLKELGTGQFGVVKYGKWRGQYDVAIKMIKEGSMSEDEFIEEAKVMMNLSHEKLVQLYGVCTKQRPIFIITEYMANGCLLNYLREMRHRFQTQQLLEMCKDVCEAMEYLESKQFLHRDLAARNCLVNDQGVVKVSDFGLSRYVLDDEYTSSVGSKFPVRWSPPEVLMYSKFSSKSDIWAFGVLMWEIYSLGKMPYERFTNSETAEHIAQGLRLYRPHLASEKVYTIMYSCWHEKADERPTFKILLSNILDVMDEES
# Procedure Details: Btk enzyme activity (IMAP fluorescence polarization assay)
# Condition Description: read-out: EC50 Btk activity values; IMAP, 60 min pre-incubation, 5 μM ATP; bin bound in nM
Parameter: EC50. Scope: all listed entries.
Property: EC50

Record Smiles	Measured Value
C=CC(=O)N1CCC[C@H]1c1nc(-c2ccc(C(=O)Nc3cc(CC)ccn3)cc2)c2c(N)nccn12	< 10 nM
CC#CC(=O)N1CCCC[C@H]1c1nc(-c2ccc(C(=O)Nc3cc(F)ccn3)cc2)c2c(N)nccn12	< 10 nM
CCCc1ccnc(NC(=O)c2ccc(-c3nc([C@@H]4CCCCN4C(=O)/C=C/COC)n4ccnc(N)c34)cc2)c1	< 10 nM
C=CC(=O)N1CCCC[C@H]1c1nc(-c2ccc(C(=O)Nc3nccc(C)n3)cc2)c2c(N)nccn12	< 10 nM

====

# Measurement Target: Btk enzyme (His-Btk) (Homo sapiens (Human), UniProt Q06187)
# Procedure Details: Btk enzyme activity (IMAP fluorescence polarization assay)
The entries below come with measured EC50 values attached.

Record Smiles	EC50
Nc1nccn2c([C@@H]3CCCCN3C(=O)c3ccnc(Cl)n3)nc(-c3ccc(C(=O)Nc4cccnn4)cc3)c12	100 to 1000 nM
Nc1nccn2c([C@@H]3CCCN3C(=O)c3ccnc(Cl)n3)nc(-c3ccc(C(=O)Nc4nc5c(s4)CCCC5)cc3)c12	10 to 100 nM
Nc1nccn2c([C@@H]3CCCN3C(=O)c3ccnc(Cl)n3)nc(-c3ccc(C(=O)Nc4cc(C(F)(F)F)ccn4)cc3)c12	10 to 100 nM
CC#CC(=O)N(C)[C@@H](C)c1nc(-c2ccc(C(=O)Nc3cc(CCC)ccn3)cc2)c2c(N)nccn12	10 to 100 nM
COC/C=C/C(=O)N1CCCC[C@H]1c1nc(-c2ccc(C(=O)Nc3nccc(C)n3)cc2)c2c(N)nccn12	100 to 1000 nM
Cc1cc(C(=O)Nc2ccccn2)ccc1-c1nc([C@@H]2CCCCN2C(=O)c2ccnc(Cl)n2)n2ccnc(N)c12	10 to 100 nM
Nc1nccn2c([C@@H]3CCCCN3C(=O)c3ccnc(Cl)n3)nc(-c3ccc(C(=O)Nc4cc(F)ccn4)cc3)c12	10 to 100 nM

====

# Measurement Target: Btk enzyme (His-Btk) (Homo sapiens (Human), UniProt Q06187)
# Procedure Details: Btk enzyme activity (IMAP fluorescence polarization assay)

Record Smiles	EC50
COC/C=C/C(=O)N1CCC[C@H]1c1nc(-c2ccc(C(=O)Nc3cc(C(C)C)ccn3)cc2)c2c(N)nccn12	10 to 100 nM
COC/C=C/C(=O)N1CCCC[C@H]1c1nc(-c2ccc(C(=O)Nc3cc(F)ccn3)cc2)c2c(N)nccn12	10 to 100 nM
CN(C)CC#CC(=O)N1CCC[C@H]1c1nc(-c2ccc(C(=O)Nc3ccccn3)cc2)c2c(N)nccn12	10 to 100 nM
COC/C=C/C(=O)N1CCCC[C@H]1c1nc(-c2ccc(C(=O)Nc3ccon3)cc2)c2c(N)nccn12	100 to 1000 nM
CC#CC(=O)N1CCC[C@H]1c1nc(-c2ccc(C(=O)Nc3ccccn3)c(OC)c2)c2c(N)nccn12	10 to 100 nM
Nc1nccn2c([C@@H]3CCCCN3C(=O)c3ccnc(Cl)n3)nc(-c3ccc(C(=O)Nc4ncccn4)cc3)c12	100 to 1000 nM
C=CC(=O)N1CCCC[C@H]1c1nc(-c2ccc(C(=O)Nc3ccccn3)cc2C)c2c(N)nccn12	100 to 1000 nM

====

# Measurement Target: Lck enzyme (Homo sapiens (Human), UniProt P06239)
# Sequence (P06239 whole entry): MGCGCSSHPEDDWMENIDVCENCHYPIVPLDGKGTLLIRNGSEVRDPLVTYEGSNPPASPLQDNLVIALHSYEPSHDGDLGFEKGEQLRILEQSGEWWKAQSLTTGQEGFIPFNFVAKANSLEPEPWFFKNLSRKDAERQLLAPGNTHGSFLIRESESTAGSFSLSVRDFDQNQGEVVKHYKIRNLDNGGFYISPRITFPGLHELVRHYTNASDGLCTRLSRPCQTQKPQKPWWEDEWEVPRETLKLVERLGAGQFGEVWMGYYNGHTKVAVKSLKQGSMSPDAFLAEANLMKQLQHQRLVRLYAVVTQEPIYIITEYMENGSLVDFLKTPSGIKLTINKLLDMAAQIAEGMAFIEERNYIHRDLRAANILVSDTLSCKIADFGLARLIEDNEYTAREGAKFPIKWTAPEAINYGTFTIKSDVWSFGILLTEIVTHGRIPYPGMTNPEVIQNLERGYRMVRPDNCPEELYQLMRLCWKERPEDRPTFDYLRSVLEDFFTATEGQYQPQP
# Procedure Details: Lck enzyme activity (IMAP fluorescence polarization assay)
Readings of EC50 for the listed molecules

Molecule	EC50
C=CC(=O)N1CCC[C@H]1c1nc(-c2ccc(C(=O)Nc3cc(-c4ccccc4)ccn3)cc2)c2c(N)nccn12 [Example 133]	100 to 1000 nM
C=CC(=O)N1CCC[C@H]1c1nc(-c2ccc(C(=O)Nc3cc(CCC)ccn3)cc2)c2c(N)nccn12 [Example 125]	100 to 1000 nM
Nc1nccn2c([C@@H]3CCCN3C(=O)/C=C/c3ccccc3)nc(-c3ccc(C(=O)Nc4ccccn4)cc3)c12 [Example 104]	100 to 1000 nM
C/C=C/C(=O)N1CCC[C@H]1c1nc(-c2ccc(C(=O)Nc3ccccn3)cc2)c2c(N)nccn12 [Example 93]	≥ 1000 nM
Nc1nccn2c([C@@H]3CCCN3C(=O)/C=C/CN3CCCC3)nc(-c3ccc(C(=O)Nc4ccccn4)cc3)c12 [Example 2]	≥ 1000 nM
CC#CC(=O)N1CCC[C@H]1c1nc(-c2ccc(C(=O)Nc3nccs3)cc2)c2c(N)nccn12 [Example 60]	100 to 1000 nM
C=CC(=O)N1CCC[C@H]1c1nc(-c2ccc(C(=O)Nc3cc(C)ccn3)cc2)c2c(N)nccn12 [Example 124]	100 to 1000 nM

====

Listed molecules paired with reported EC50
# Measurement Target: Lyn enzyme (Homo sapiens (Human))
# Sequence (P07948 whole entry): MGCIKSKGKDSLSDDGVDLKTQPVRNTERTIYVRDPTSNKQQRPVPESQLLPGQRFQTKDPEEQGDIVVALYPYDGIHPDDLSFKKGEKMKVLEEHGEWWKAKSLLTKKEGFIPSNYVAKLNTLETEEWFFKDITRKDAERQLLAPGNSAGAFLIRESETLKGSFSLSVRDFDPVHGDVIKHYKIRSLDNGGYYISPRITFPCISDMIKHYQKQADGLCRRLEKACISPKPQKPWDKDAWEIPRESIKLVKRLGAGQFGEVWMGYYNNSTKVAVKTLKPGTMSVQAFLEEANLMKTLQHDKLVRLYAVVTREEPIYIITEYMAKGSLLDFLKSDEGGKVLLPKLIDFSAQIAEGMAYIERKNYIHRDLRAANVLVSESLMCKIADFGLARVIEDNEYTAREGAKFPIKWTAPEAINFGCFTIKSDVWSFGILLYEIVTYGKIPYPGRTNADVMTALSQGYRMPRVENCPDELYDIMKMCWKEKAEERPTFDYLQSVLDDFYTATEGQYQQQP
# Procedure Details: Lyn enzyme activity (IMAP fluorescence polarization assay)
# Condition Description: EC50 Lyn activity values, 60 min pre-incubation, 2 μM ATP, bin bound in nM

Molecule	EC50
C=CC(=O)N1CCC[C@H]1c1nc(-c2ccc(C(=O)Nc3cc(CCC)ccn3)cc2)c2c(N)nccn12 [Example 125]	100 to 1000 nM
C=CC(=O)N1CCC[C@H]1c1nc(-c2ccc(C(=O)Nc3cc(CC)ccn3)cc2)c2c(N)nccn12 [Example 126]	100 to 1000 nM
C=CC(=O)N1CCC[C@H]1c1nc(-c2ccc(C(=O)Nc3cc(-c4ccccc4)ccn3)cc2)c2c(N)nccn12 [Example 133]	100 to 1000 nM
C=CC(=O)N1CCC[C@H]1c1nc(-c2ccc(C(=O)Nc3cc(C)ccn3)cc2)c2c(N)nccn12 [Example 124]	100 to 1000 nM
CC#CC(=O)N1CCC[C@H]1c1nc(-c2ccc(C(=O)Nc3nccs3)cc2)c2c(N)nccn12 [Example 60]	≥ 100 nM

====

# Measurement Target: Btk enzyme (His-Btk) (Homo sapiens (Human), UniProt Q06187)
# Procedure Details: Btk enzyme activity (IMAP fluorescence polarization assay)

Compound	EC50
COC/C=C/C(=O)N1CCCC[C@H]1c1nc(-c2ccc(C(=O)Nc3ncccn3)cc2)c2c(N)nccn12 [Example 55]	100 to 1000 nM
N#CCN1CCC[C@H]1c1nc(-c2ccc(C(=O)Nc3ccccn3)cc2)c2c(N)nccn12 [Example 94]	100 to 1000 nM
COC/C=C/C(=O)N1CCC[C@H]1c1nc(-c2ccc(C(=O)Nc3cc(OC)ccn3)cc2)c2c(N)nccn12 [Example 51]	10 to 100 nM
COCC#CC(=O)N1CCC[C@H]1c1nc(-c2ccc(C(=O)Nc3ccccn3)cc2)c2c(N)nccn12 [Example 41]	10 to 100 nM
C=C(C(=O)N1CCC[C@H]1c1nc(-c2ccc(C(=O)Nc3ccccn3)cc2)c2c(N)nccn12)C(F)(F)F [Example 92]	100 to 1000 nM
CC#CC(=O)NCc1nc(-c2ccc(C(=O)Nc3ccccn3)cc2)c2c(N)nccn12 [Example 112]	10 to 100 nM
COC/C=C/C(=O)N1CCC[C@H]1c1nc(-c2ccc(C(=O)Nc3nc4c(s3)CCCC4)cc2)c2c(N)nccn12 [Example 82]	10 to 100 nM
CCCc1ccnc(NC(=O)c2ccc(-c3nc([C@@H]4CCCN4C(=O)/C=C/COC)n4ccnc(N)c34)c(C)c2)c1 [Example 87]	100 to 1000 nM
Nc1nccn2c([C@@H]3CCCN3C(=O)c3ccnc(Cl)n3)nc(-c3ccc(C(=O)Nc4ccccn4)c(F)c3)c12 [Example 84]	10 to 100 nM
COC/C=C/C(=O)N1CCC[C@H]1c1nc(-c2ccc(C(=O)Nc3ccccn3)c(F)c2)c2c(N)nccn12 [Example 52]	100 to 1000 nM
Cc1ccnc(NC(=O)c2ccc(-c3nc([C@@H]4CCCN4C(=O)/C=C/CN(C)C)n4ccnc(N)c34)cc2)c1 [Example 59]	10 to 100 nM
CC#CC(=O)N1CCC[C@H]1c1nc(-c2ccc(C(=O)Nc3cc(F)ccn3)cc2)c2c(N)nccn12 [Example 106]	10 to 100 nM
Nc1nccn2c([C@@H]3CCCN3C(=O)/C=C/CN3CCCC3)nc(-c3ccc(C(=O)Nc4ccccn4)cc3)c12 [Example 2]	10 to 100 nM
COC/C=C/C(=O)N1CCC[C@H]1c1nc(-c2ccc(C(=O)Nc3cc(F)ccn3)cc2)c2c(N)nccn12 [Example 53]	100 to 1000 nM
COC/C=C/C(=O)NCc1nc(-c2ccc(C(=O)Nc3ccccn3)cc2)c2c(N)nccn12 [Example 95]	10 to 100 nM
COC/C=C/C(=O)N1CCCC[C@H]1c1nc(-c2ccc(C(=O)Nc3ccncn3)cc2)c2c(N)nccn12 [Example 86]	100 to 1000 nM
COC/C=C/C(=O)N1CCCC[C@H]1c1nc(-c2ccc(C(=O)Nc3cccnn3)cc2)c2c(N)nccn12 [Example 72]	100 to 1000 nM
